- System: B. subtilis 168
- ASSAY COMMENT: Antibacterial MIC, double-dilution method
- Assay type: cell-based
- APPLIED CONDITIONS: Bacillus subtilis, strain A, Gram-positive, range 0.5 to 500 μM
REPORTED ENDPOINT: MIC

Worked examples, 8 compounds total:
{"COMPOUND": "Cl.N=C(N)N/N=C/c1ccc(-c2ccc(/C=N/Nc3ccccc3Br)cc2)cc1 [Compound 7Ab, monohydrochloride]", "EXPERIMENTAL TARGET": "B. subtilis 168", "ENDPOINT RESULT": "> 500 µM"}
{"COMPOUND": "C/C(=N\\NC(=N)N)c1ccc(-c2ccc(/C(C)=N/Nc3ccccc3Cl)cc2)cc1.Cl [Compound 8Aa, hydrochloride]", "EXPERIMENTAL TARGET": "B. subtilis 168", "ENDPOINT RESULT": "62.5 to 125 µM"}
{"COMPOUND": "C/C(=N\\NC(=N)N)c1cccc(/C(C)=N/NC(=N)N)c1.Cl.Cl [Compound 4H, dihydrochloride]", "EXPERIMENTAL TARGET": "B. subtilis 168", "ENDPOINT RESULT": "250 µM"}
{"COMPOUND": "Cl.Cl.N=C(N)N/N=C/c1ccc(-c2ccc(/C=N/NC(=N)N)cc2)cc1 [Compound 3A, dihydrochloride]", "EXPERIMENTAL TARGET": "B. subtilis 168", "ENDPOINT RESULT": "> 500 µM"}
{"COMPOUND": "C/C(=N\\NC(=N)N)c1ccc(CCc2ccc(/C(C)=N/NC(=N)N)cc2)cc1.Cl.Cl [Compound 4D, dihydrochloride]", "EXPERIMENTAL TARGET": "B. subtilis 168", "ENDPOINT RESULT": "> 500 µM"}
{"COMPOUND": "Cl.N=C(N)N/N=C/c1ccc(-c2ccc(/C=N/Nc3ccc(Cl)cc3Cl)cc2)cc1 [Compound 7Ag, hydrochloride]", "EXPERIMENTAL TARGET": "B. subtilis 168", "ENDPOINT RESULT": "> 500 µM"}
{"COMPOUND": "CC1COc2c(N3CCN(C)CC3)c(F)cc3c(=O)c(C(=O)O)cn1c23 (stereo not drawn) [OFX, ofloxacin, reference compound]", "EXPERIMENTAL TARGET": "B. subtilis 168", "ENDPOINT RESULT": "≤ 0.5 µM"}
{"COMPOUND": "CC1(C)S[C@@H]2[C@H](NC(=O)[C@H](N)c3ccccc3)C(=O)N2[C@H]1C(=O)O [AMP, ampicillin, reference compound]", "EXPERIMENTAL TARGET": "B. subtilis 168", "ENDPOINT RESULT": "> 250 µM"}

Item under review: C/C(=N\NC(=N)N)c1ccc(-c2ccc(/C(C)=N/NC(=N)N)cc2)cc1.Cl.Cl [Compound 4A, dihydrochloride] . Reported MIC?
> 500 µM

###

- System: VRE
- ASSAY COMMENT: Antibacterial MIC, double-dilution method
- Assay type: cell-based
- APPLIED CONDITIONS: Enterococcus, strain D, Gram-positive, converted from μM, read-out: MIC
Consider the following compounds; for each one, report its MIC.
Numbers only, in µg/mL.

Below, each entry is followed by its recorded MIC result.
{"COMPOUND": "Cl.N=C(N)N/N=C/c1ccc(-c2ccc(/C=N/Nc3ccc(Cl)cc3Cl)cc2)cc1 [Compound 7Ag]", "REPORTED ENDPOINT": "MIC", "ENDPOINT RESULT": 3.6}
{"COMPOUND": "C/C(=N\\NC(=N)N)c1ccc(Cc2ccc(/C(C)=N/NC(=N)N)cc2)cc1.Cl.Cl [Compound 4C]", "REPORTED ENDPOINT": "MIC", "ENDPOINT RESULT": 0.9}
{"COMPOUND": "C/C(=N\\NC(=N)N)c1ccc(Oc2ccc(/C(C)=N/NC(=N)N)cc2)cc1.Cl.Cl [Compound 4E]", "REPORTED ENDPOINT": "MIC", "ENDPOINT RESULT": 1.7}
{"COMPOUND": "Cl.N=C(N)N/N=C/c1ccc(-c2ccc(/C=N/Nc3ccc(F)cc3F)cc2)cc1 [Compound 7Af]", "REPORTED ENDPOINT": "MIC", "ENDPOINT RESULT": 1.7}
{"COMPOUND": "Cl.N=C(N)N/N=C/c1ccc(-c2ccc(/C=N/Nc3ccccc3Br)cc2)cc1 [Compound 7Ab]", "REPORTED ENDPOINT": "MIC", "ENDPOINT RESULT": 0.9}

Could you now consider this next compound?
Look at this compound and give its reported MIC. Cl.N=C(N)N/N=C/c1ccc(-c2ccc(/C=N/Nc3ccc(Cl)cc3)cc2)cc1 [Compound 7Ad]
1.7

###

- ASSAY COMMENT: Mammalian cell cytotoxicity, resazurin
- Type: cell-based
- APPLIED CONDITIONS: human, A549 lung carcinoma epithelial cells; A549, 24 h
Would you mind telling me the reported IC50 at 24 h of each entry?

{"COMPOUND": "Cl.N=C(N)N/N=C/c1ccc(-c2ccc(/C=N/Nc3ccc(F)cc3F)cc2)cc1 [Compound 7Af, monohydrochloride]", "IC50 at 24 h": "7.8 to 15.6 µg/mL"}

For each of the compounds below, state IC50 at 24 h.
1. Cl.Cl.N=C(N)N/N=C/c1ccc(-c2cccc(/C=N/NC(=N)N)c2)cc1 [Compound 3B, dihydrochloride]
2. Cl.N=C(N)N/N=C/c1ccc(-c2ccc(/C=N/Nc3ccc(Cl)cc3)cc2)cc1 [Compound 7Ad, monohydrochloride]

7.8 to 15.6 µg/mL
7.8 to 15.6 µg/mL

###

- System: C. albicans ATCC 64124
- ASSAY COMMENT: Antifungal MIC, CLSI M27-A3 microbroth dilution
- Type: cell-based, Candida albicans
- APPLIED CONDITIONS: Candida albicans, ATCC64124; C. albicans ATCC 64124, resistant to FLC, ITC, and VOR; converted from μg/mL; read-out: MIC
Could you please report measured log10 of MIC for the items listed next?
// units: µM (pre-log); metric: MIC; scale: log10

{"COMPOUND": "Cl.N=C(N)N/N=C/c1ccc(-c2ccc(/C=N/Nc3ccccc3Br)cc2)cc1 [Compound 7Ab, monohydrochloride]", "EXPERIMENTAL TARGET": "C. albicans ATCC 64124", "log10 of MIC": 0.92}
{"COMPOUND": "Cl.N=C(N)N/N=C/c1ccc(-c2ccc(/C=N/Nc3ccc(F)cc3F)cc2)cc1 [Compound 7Af, monohydrochloride]", "EXPERIMENTAL TARGET": "C. albicans ATCC 64124", "log10 of MIC": 0.96}
{"COMPOUND": "Cl.N=C(N)N/N=C/c1ccc(-c2ccc(/C=N/Nc3ccc(Cl)cc3)cc2)cc1 [Compound 7Ad, monohydrochloride]", "EXPERIMENTAL TARGET": "C. albicans ATCC 64124", "log10 of MIC": 1.56}
{"COMPOUND": "Cl.N=C(N)N/N=C/c1ccc(-c2ccc(C=NNc3ccccc3Cl)cc2)cc1 (mixture of isomers) [Compound 7Aa, monohydrochloride]", "EXPERIMENTAL TARGET": "C. albicans ATCC 64124", "log10 of MIC": 0.96}
{"COMPOUND": "Cl.N#Cc1ccc(N/N=C/c2ccc(-c3ccc(/C=N/NC(=N)N)cc3)cc2)cc1 [Compound 7Ae, monohydrochloride]", "EXPERIMENTAL TARGET": "C. albicans ATCC 64124", "log10 of MIC": 1.87}
{"COMPOUND": "C/C(=N\\NC(=N)N)c1ccc(/C(C)=N/NC(=N)N)cc1.Cl.Cl [Compound 4G, dihydrochloride]", "EXPERIMENTAL TARGET": "C. albicans ATCC 64124", "log10 of MIC": 1.95}

Value sought for every listed compound: log10 of MIC.
1. C/C(=N\NC(=N)N)c1ccc2c(c1)Cc1cc(/C(C)=N/NC(=N)N)ccc1-2.Cl.Cl [Compound 4F, dihydrochloride]
2. C/C(=N\NC(=N)N)c1ccc(Cc2ccc(/C(C)=N/NC(=N)N)cc2)cc1.Cl.Cl [Compound 4C, dihydrochloride]
3. C/C(=N\NC(=N)N)c1ccc(Oc2ccc(/C(C)=N/NC(=N)N)cc2)cc1.Cl.Cl [Compound 4E, dihydrochloride]
4. C/C(=N\NC(=N)N)c1ccc(-c2ccc(/C(C)=N/NC(=N)N)cc2)cc1.Cl.Cl [Compound 4A, dihydrochloride]
5. Cl.N=C(N)N/N=C/c1ccc(-c2ccc(/C=N/Nc3ccc(Cl)cc3Cl)cc2)cc1 [Compound 7Ag, hydrochloride]
6. Cl.Cl.N=C(N)N/N=C/c1ccc(-c2cccc(/C=N/NC(=N)N)c2)cc1 [Compound 3B, dihydrochloride]
7. C/C(=N\NC(=N)N)c1ccc(-c2ccc(/C(C)=N/Nc3ccccc3Cl)cc2)cc1.Cl [Compound 8Aa, hydrochloride]

1: 0.36; 2: 1.25; 3: 1.25; 4: 0.67; 5: 1.83; 6: 1.00; 7: 1.84
